Test: Retention time of the compound
Type: physicochemical
Parameter Retention_time: see the listing below.
Just the number in min, nothing appended.

Below, 3 compounds whose answers are already recorded.
COc1ccc(NC(C)=O)cc1C(=O)NNC(=O)[C@H](CCCCNC(=O)CCCOc1ccc2cc(NC(=O)CN3CCNCC3)c(OCCCC(=O)NCCCC[C@H](NC(=O)OC(C)(C)C)C(=O)NNC(=O)c3cc(NC(C)=O)ccc3OC)cc2c1)NC(=O)OC(C)(C)C
11.2
COc1ccc(NC(C)=O)cc1C(=O)NNC(=O)[C@H](CCCCNC(=O)CCCOc1ccc2cc(NCC(O)CO)c(OCCCC(=O)NCCCC[C@H](NC(=O)OC(C)(C)C)C(=O)NNC(=O)c3cc(NC(C)=O)ccc3OC)cc2c1)NC(=O)OC(C)(C)C (stereo not given in full)
12.7
COc1ccc(NC(C)=O)cc1C(=O)NNC(=O)[C@H](CCCCNC(=O)CCCOc1ccc2cc(CCCN)c(OCCCC(=O)NCCCC[C@H](NC(=O)OC(C)(C)C)C(=O)NNC(=O)c3cc(NC(C)=O)ccc3OC)cc2c1)NC(=O)OC(C)(C)C
11.4

Now look at this entry.
// query What value of Retention_time has been reported for the following compound? COc1ccc(NC(C)=O)cc1C(=O)NNC(=O)[C@H](CCCCNC(=O)CCCOc1ccc2cc(CCCN(C)C)c(OCCCC(=O)NCCCC[C@H](NC(=O)OC(C)(C)C)C(=O)NNC(=O)c3cc(NC(C)=O)ccc3OC)cc2c1)NC(=O)OC(C)(C)C
// result 11.4

---

Parameter pKi: see the listing below.
Molecular target: Protease (Human immunodeficiency virus 1, UniProt Q9YQ12)
Sequence (Q9YQ12 whole entry): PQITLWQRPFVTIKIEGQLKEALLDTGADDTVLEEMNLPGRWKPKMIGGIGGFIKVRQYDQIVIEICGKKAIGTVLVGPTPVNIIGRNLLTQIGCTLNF
Test: Dimerziation inhibition of HIV1 wild type protease using fluorogenic substrate DABCYL- -abu-SQNYPIVQ-EDANS at pH 4.7 by fluorimetric assay
The meaning of pKi here: minus log10 of the concentration in molar units.

COc1ccc(NC(C)=O)cc1C(=O)NNC(=O)[C@H](CCCCNC(=O)CCCOc1ccc2cc(NCC3COC(C)(C)O3)c(OCCCC(=O)NCCCC[C@H](NC(=O)OC(C)(C)C)C(=O)NNC(=O)c3cc(NC(C)=O)ccc3OC)cc2c1)NC(=O)OC(C)(C)C (some centres not stated)
5.23

Now look at this entry.
// query Form field: pKi recorded for COc1ccc(NC(C)=O)cc1C(=O)NNC(=O)[C@H](CCCCNC(=O)CCCOc1ccc2cc(CN)c(OCCCC(=O)NCCCC[C@H](NC(=O)OC(C)(C)C)C(=O)NNC(=O)c3cc(NC(C)=O)ccc3OC)cc2c1)NC(=O)OC(C)(C)C with Protease (Human immunodeficiency virus 1, UniProt Q9YQ12) (enter value)
// result 6.52

---

Test: Dimerziation inhibition of HIV1 ANAM11 protease mutant using fluorogenic substrate DABCYL- -abu-SQNYPIVQ-EDANS at pH 4.7 by fluorimetric assay
Set-up: species or system Human immunodeficiency virus 1
Parameter Ki: see the listing below.
Just the number in nM, nothing appended.

Below, 2 molecules whose answers are already recorded.
COc1ccc(NC(C)=O)cc1C(=O)NNC(=O)[C@@H](NC(=O)CCCOc1ccc2cc(N)c(OCCCC(=O)N[C@H](C(=O)NNC(=O)c3cc(NC(C)=O)ccc3OC)C(C)C)cc2c1)C(C)C
940
COc1ccc(NC(C)=O)cc1C(=O)NNC(=O)[C@H](CCCCNC(=O)CCCOc1ccc2cc(N)c(OCCCC(=O)NCCCC[C@H](NC(=O)OC(C)(C)C)C(=O)NNC(=O)c3cc(NC(C)=O)ccc3OC)cc2c1)NC(=O)OC(C)(C)C
830

// query What value of Ki has been reported for the following molecule? COc1ccc(NC(C)=O)cc1C(=O)NNC(=O)[C@H](CCCCNC(=O)CCCOc1ccc2ccc(OCCCC(=O)NCCCC[C@H](NC(=O)OC(C)(C)C)C(=O)NNC(=O)c3cc(NC(C)=O)ccc3OC)cc2c1)NC(=O)OC(C)(C)C
// result 2000

// query What value of Ki has been reported for the following molecule? COc1ccc(NC(C)=O)cc1C(=O)NNC(=O)[C@@H](NC(=O)CCCOc1ccc2cc(NCC(O)CO)c(OCCCC(=O)N[C@H](C(=O)NNC(=O)c3cc(NC(C)=O)ccc3OC)C(C)C)cc2c1)C(C)C (stereo not given in full)
// result 940

// query What value of Ki has been reported for the following molecule? COc1ccc(NC(C)=O)cc1C(=O)NNC(=O)[C@H](CCCCNC(=O)CCCOc1ccc2cc(CN)c(OCCCC(=O)NCCCC[C@H](NC(=O)OC(C)(C)C)C(=O)NNC(=O)c3cc(NC(C)=O)ccc3OC)cc2c1)NC(=O)OC(C)(C)C
// result 2450
